tested on: Mus musculus; assay: Analgesic activity in ICR mouse assessed as pain threshold variation at 0.13 mmol/kg, ip after 30 mins by tail flick test relative to control; type: functional
# Activity >= 30% gives T, anything below gives F

INSERT INTO measurements (smiles_record, experimental_system, cat) VALUES
  ('CC1(C)N=C(c2cccc([N+](=O)[O-])c2)N(O)C1(C)C', 'Mus musculus', 'T'),
  ('CC1(C)N=C(c2ccc(Cl)c(Cl)c2)N(O)C1(C)C', 'Mus musculus', 'F'),
  ('CC1(C)N=C(c2ccccc2[N+](=O)[O-])N(O)C1(C)C', 'Mus musculus', 'F'),
  ('CC1(C)N=C(c2ccc(O)cc2)N(O)C1(C)C', 'Mus musculus', 'T'),
  ('CN(C)c1ccc(C2=NC(C)(C)C(C)(C)N2O)cc1', 'Mus musculus', 'T'),
  ('CC1(C)N=C(c2ccccc2F)N(O)C1(C)C', 'Mus musculus', 'T'),
  ('COc1ccc(C2=NC(C)(C)C(C)(C)N2O)cc1O', 'Mus musculus', 'T'),
  ('COc1ccc(C2=NC(C)(C)C(C)(C)N2O)cc1', 'Mus musculus', 'T');

----------
tested on: Mus musculus; assay: Thrombotic toxicity in ICR mouse assessed as tail bleeding time at 1.3 mmol/kg, ip after 5 mins; assay type: organism-based; conditions: in vivo
READOUT TYPE: Activity (s)

INSERT INTO results (smiles_record, output_unit, value_observed) VALUES
  ('COc1ccc(C2=NC(C)(C)C(C)(C)N2O)cc1O', 's', 120),
  ('CC1(C)N=C(c2ccccc2)N(O)C1(C)C', 's', 117),
  ('CC1(C)N=C(c2ccc([N+](=O)[O-])cc2)N(O)C1(C)C', 's', 118),
  ('CC1(C)N=C(c2cccc([N+](=O)[O-])c2)N(O)C1(C)C', 's', 117),
  ('Cc1ccc(C2=NC(C)(C)C(C)(C)N2O)cc1', 's', 119),
  ('CC1(C)N=C(c2ccccc2O)N(O)C1(C)C', 's', 118),
  ('CN(C)c1ccc(C2=NC(C)(C)C(C)(C)N2O)cc1', 's', 117),
  ('COc1ccc(C2=NC(C)(C)C(C)(C)N2O)cc1OC', 's', 117),
  ('CC1(C)N=C(c2ccc(Br)cc2)N(O)C1(C)C', 's', 118),
  ('CC1(C)N=C(c2ccccc2F)N(O)C1(C)C', 's', 117),
  ('CC1(C)N=C(c2ccc(Cl)c(Cl)c2)N(O)C1(C)C', 's', 118),
  ('CC1(C)N=C(c2cccc(O)c2)N(O)C1(C)C', 's', 117),
  ('CC1(C)N=C(c2ccc3c(c2)OCO3)N(O)C1(C)C', 's', 120),
  ('COc1ccc(C2=NC(C)(C)C(C)(C)N2O)c(OC)c1', 's', 118),
  ('CC1(C)N=C(c2ccc(Cl)cc2Cl)N(O)C1(C)C', 's', 117),
  ('CC1(C)N=C(c2ccccc2[N+](=O)[O-])N(O)C1(C)C', 's', 119),
  ('COc1cc(C2=NC(C)(C)C(C)(C)N2O)ccc1O', 's', 119),
  ('COc1ccc(C2=NC(C)(C)C(C)(C)N2O)cc1', 's', 119),
  ('CC1(C)N=C(c2ccc(Cl)cc2)N(O)C1(C)C', 's', 117),
  ('CC1(C)N=C(c2ccc(O)cc2)N(O)C1(C)C', 's', 116);
